- Test system: SNB-19
- test.name: NCI tumour cell line growth inhibition, 48 h
Active and inactive are the calls of the source. Cut-off read from the data, not from the text of the source: active = GI50 up to about 1.1 µM and inactive = higher.
Parameter call: string, one of true (1) for active, false (0) for inactive

Req: Short answer needed: outcome of this test for COCCN(CCOC)C(=O)COc1c2cc(C(C)(C)C)cc1Cc1cc(C(C)(C)C)cc(c1OCC(=O)N(CCOC)CCOC)Cc1cc(C(C)(C)C)cc(c1OCC(=O)N(CCOC)CCOC)Cc1cc(C(C)(C)C)cc(c1OCC(=O)N(CCOC)CCOC)Cc1cc(C(C)(C)C)cc(c1OCC(=O)N(CCOC)CCOC)C2 ?
Resp: false (0)

Req: Short answer needed: outcome of this test for CCCCc1c2c(nc3c1CCC/C3=C\c1ccccc1)/C(=C/c1ccccc1)CCC2 ?
Resp: false (0)

Req: Short answer needed: outcome of this test for C=C[C@@]1(C)CC(=O)[C@]2(O)[C@@]3(C)[C@@H](OC(C)=O)CCC(C)(C)[C@@H]3[C@H](OC(C)=O)[C@H](OC(C)=O)[C@@]2(C)O1 ?
Resp: false (0)

Req: Short answer needed: outcome of this test for COCCOC1=C(Cl)C(=O)c2c(O)ccc(O)c2C1=O ?
Resp: false (0)

Req: Short answer needed: outcome of this test for CNc1cccc(-c2cc(O)c3cc4c(cc3n2)OCO4)c1 ?
Resp: true (1)

Req: Short answer needed: outcome of this test for Nc1ccc(C2(c3ccc(N)cc3)C3CC4CC(C3)CC2C4)cc1 ?
Resp: false (0)

Req: Short answer needed: outcome of this test for CC12CCC(CC(=O)/C1=C(/Br)I)C2(C)C (stereo not drawn) ?
Resp: false (0)

Req: Short answer needed: outcome of this test for CCC(=O)C(c1ccccc1)c1ccccn1 (stereo not drawn) ?
Resp: false (0)

====

For each entry below, report its GI50 value.
- Test system: OVCAR-4
- test.name: NCI tumour cell line growth inhibition, 48 h
Activity calls are given as the source filed them. Rule as the data show it: active = GI50 up to about 1.1 µM and inactive = higher.

Measured GI50 of O=P1(C(O)c2ccccc2)N(Cc2ccccc2)[C@@H]2CCCC[C@H]2N1Cc1ccccc1 (stereo partly specified) : 12.3 µM (inactive)

Measured GI50 of CCNC1C2(CCCCC2)NC(=O)C12CCCCC2 (stereo unspecified) : > 100 µM (inactive)

Measured GI50 of Nc1ccc(C2(c3ccc(N)cc3)C3CC4CC(C3)CC2C4)cc1 : 14.3 µM (inactive)

Measured GI50 of O=C(NCCC1([N+](=O)[O-])CCN(C(=O)c2ccccc2)CC1)c1ccccc1 : 52 µM (inactive)

Measured GI50 of Cn1ccc(C(=O)NCCN(CCNC(=O)c2ccn(C)c(=O)c2O)CCNC(=O)c2ccn(C)c(=O)c2O)c(O)c1=O : > 100 µM (inactive)

Measured GI50 of Nc1c2ccccc2nc2c1ccc1ncccc12 : 17.9 µM (inactive)

Measured GI50 of Oc1cc(-c2ccccc2)nc2c(S)cccc12 : > 100 µM (inactive)

Measured GI50 of c1cn[nH]c1 : > 10 µM (inactive)

Measured GI50 of COc1ccc(CCNCCCC2c3ccccc3-c3ccccc32)cc1OC : 15.8 µM (inactive)

Measured GI50 of Clc1ccc(/N=C/C=C/Nc2ccc(Cl)cn2)nc1 : 7.52 µM (inactive)

Measured GI50 of C=CCC1(c2ccc(OC)cc2)C=CC(=O)CC1 (stereo unspecified) : > 100 µM (inactive)

====

For each entry below, report its GI50 value.
- Test system: COLO 205
- test.name: NCI tumour cell line growth inhibition, 48 h
Calls of active or inactive are those of the source. No stated cut-off is given here; in the data, active = GI50 up to about 1.1 µM and inactive = higher.

Measured GI50 of c1cn[nH]c1 : > 10 µM (inactive)

Measured GI50 of O=C1/C(=C/c2ccc(O)c(O)c2)CCC/C1=C\c1ccc(O)c(O)c1 : 7.03 µM (inactive)

Measured GI50 of Cc1c(O)c(O)cc[n+]1C1OC(CO)C(O)C1O (stereo not given) : > 100 µM (inactive)

Measured GI50 of CCN(CC)CCN(C(=O)c1ccc(F)cc1)c1ccccc1N : > 10 µM (inactive)

Measured GI50 of C(=N/c1ccccc1C1SCCCS1)/c1ccccc1 : > 100 µM (inactive)

Measured GI50 of COC(=O)C1=C(C(=O)OC)C2OC1C1C2C2(C)C(C)=C(C)C1(C)[S+]2[O-] (stereo not given) : 6.43 µM (inactive)

Measured GI50 of COP1(=O)NCc2ncccc2O1 (stereo not given) : > 100 µM (inactive)

Measured GI50 of CN(C)CCCNC1=C(Cl)C(=O)c2c(O)ccc(O)c2C1=O : 1.49 µM (inactive)

Measured GI50 of Cn1cc(NC(=O)c2cc(NC(=O)c3cc(NC=O)cn3C)cn2C)cc1C(=O)NCCC(=N)N : > 100 µM (inactive)

Measured GI50 of Brc1ccc2[nH]cc([C@H]3CN[C@@H](c4c[nH]c5ccc(Br)cc45)CN3)c2c1 : 1.73 µM (inactive)

====

- Test system: COLO 205
- test.name: NCI tumour cell line growth inhibition, 48 h
Activity calls are given as the source filed them. Rule as the data show it: active = GI50 up to about 1.1 µM and inactive = higher.
Parameter call: string, one of class 1 (active), class 0 (inactive)

Req: Short answer needed: outcome of this test for CS/C(=N\Nc1cnc2ccccc2n1)NS(=O)(=O)c1cc(C)c(Cl)cc1Cl ?
Resp: class 0

Req: Short answer needed: outcome of this test for COC(=O)C1C=CCC2CCCCC21N1CCCC1 (stereo not given) ?
Resp: class 0

Req: Short answer needed: outcome of this test for Cc1cc(N(CCC#N)CCC#N)ccc1/C=C1N=C(/C=C/c2ccccc2)OC(=O)N\1 ?
Resp: class 0

Req: Short answer needed: outcome of this test for CCOC(=O)C(CC(C)C)NC(=O)CSc1nnc(COc2ccc(Cl)cc2)n1-c1ccccc1 (stereo not given) ?
Resp: class 0

Req: Short answer needed: outcome of this test for CC1CNC(c2ccc(-c3nc(-c4ccc(C5=NC(C)CN5)cc4)nc(N(C)C)n3)cc2)=N1 (stereo not given) ?
Resp: class 1

Req: Short answer needed: outcome of this test for CC1=CCC(C(C)(C)NC(=O)c2ccccc2)C/C1=N/O (stereo not given) ?
Resp: class 0

Req: Short answer needed: outcome of this test for COc1cccc(C2c3cc4c(cc3OC(N3CCCC3)C2C)OCO4)c1OC (stereo not given) ?
Resp: class 0

Req: Short answer needed: outcome of this test for c1cncc(-c2cc(-c3cc(-c4cccnc4)[nH]n3)n[nH]2)c1 ?
Resp: class 0

Req: Short answer needed: outcome of this test for C=CCC1(c2ccc(OC)cc2)C=CC(=O)CC1 (stereo not given) ?
Resp: class 0

Req: Short answer needed: outcome of this test for CCOC(=O)C(Cc1c[nH]c2cc([N+](=O)[O-])ccc12)NS(=O)(=O)c1ccc2ccccc2c1 (stereo not given) ?
Resp: class 0

Req: Short answer needed: outcome of this test for Cn1c(=O)c2[nH]c(CCC(=O)O)nc2n(C)c1=O ?
Resp: class 0

Req: Short answer needed: outcome of this test for CSc1ncnc2c1cnn2Cc1cn(COCC(O)CO)nn1 (stereo not given) ?
Resp: class 0

Req: Short answer needed: outcome of this test for O=C1CN(c2ccc(Cl)cc2)C(=O)CN1CCN1CC(=O)N(c2ccc(Cl)cc2)CC1=O ?
Resp: class 0

Req: Short answer needed: outcome of this test for CCOC(=O)C1(C)C2=CC=C(O2)C(C)(C)C2=CC=C(O2)C(C)(C)C2=CC=C(O2)C(C)(C)C2=CC=C1O2 ?
Resp: class 0

Req: Short answer needed: outcome of this test for BrC1=C(Br)C2(SCCS2)[C@H]2C[C@@H]1c1ccccc12 ?
Resp: class 0

Req: Short answer needed: outcome of this test for COc1cccc2c1C(=O)c1c(O)c3c(c(O)c1C2=O)C[C@@](O)(C(C)=O)C[C@@H]3OC1CC(N(Cc2ccccc2)Cc2ccccc2)C(O)C(C)O1 (stereo not given in full) ?
Resp: class 0

Req: Short answer needed: outcome of this test for CC(C)C(NC(=O)C(Cc1ccccc1)NC(=O)[C@H]1CCC[C@H]1NC(=O)C(N)Cc1ccc(O)cc1)C(N)=O (stereo not given in full) ?
Resp: class 0

Req: Short answer needed: outcome of this test for CC1=CC(c2ccccc2)n2c(nc3cc4ccccc4cc32)N1 (stereo not given) ?
Resp: class 0

Req: Short answer needed: outcome of this test for COc1ccc(-c2nc(N)nc(-c3cc(C)ccc3O)c2Cl)cc1 ?
Resp: class 0

Req: Short answer needed: outcome of this test for CCOC(=O)CC1(C(=O)OCC)c2[nH]c3ccccc3c2CCN1Cc1ccccc1 (stereo not given) ?
Resp: class 0

====

- Test system: SF-539
- test.name: NCI tumour cell line growth inhibition, 48 h
The source made the active and inactive calls. No stated cut-off is given here; in the data, active = GI50 up to about 1.1 µM and inactive = higher.
measured.endpoint: GI50

Measured GI50 of C=C1CC2(OC1=O)c1ccccc1C=Cc1ccccc12 : 2.83 µM (inactive)

Measured GI50 of COc1ccc(C(SC2C(O)C(CO)OC2n2ccc(N)nc2=O)(c2ccccc2)c2ccc(OC)cc2)cc1 (centres undefined) : 18.7 µM (inactive)

Measured GI50 of Cc1c2cc[n+](C)cc2c(C)c2c1[nH]c1ccc(O)cc12 [ELLIPTINIUM ACETATE] : 12 µM (inactive)

Measured GI50 of C=CCn1c(=O)c(C)cn(/C(=C/C(=O)OCC)C(=O)OCC)c1=O : 23.2 µM (inactive)

Measured GI50 of O=C(NC1C2CC3CC(C2)CC1C3)c1cc(/C=C/c2ccccc2)nc(S)n1 (centres undefined) : > 100 µM (inactive)

Measured GI50 of O=C1/C(=C/c2ccc(O)c(O)c2)CCC/C1=C\c1ccc(O)c(O)c1 : 2.41 µM (inactive)

Measured GI50 of COC(=O)C(C(=O)C(=O)Nc1nnc(S)[nH]1)c1csc(N)n1 (centres undefined) : > 100 µM (inactive)

Measured GI50 of CCCn1c(C23CC4CC(CC(C4)C2)C3)nc2ccc(Cl)cc2c1=O : > 100 µM (inactive)

Measured GI50 of CC(C)(C)OC(=O)[C@@H]1ON2O[C@H](OC3CCCC3(c3ccccc3)c3ccccc3)C[C@H]3OC(=O)[C@@H]1[C@H]32 (some centres undefined) : > 100 µM (inactive)
